Provenance of the data: the supplement of paper PMC3545927

# Target Entity: furin, P09958;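 also: purified furin at 1:10 enzyme:substrate in 50 mM HEPES pH 7.5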
# Sequence (P09958 whole entry): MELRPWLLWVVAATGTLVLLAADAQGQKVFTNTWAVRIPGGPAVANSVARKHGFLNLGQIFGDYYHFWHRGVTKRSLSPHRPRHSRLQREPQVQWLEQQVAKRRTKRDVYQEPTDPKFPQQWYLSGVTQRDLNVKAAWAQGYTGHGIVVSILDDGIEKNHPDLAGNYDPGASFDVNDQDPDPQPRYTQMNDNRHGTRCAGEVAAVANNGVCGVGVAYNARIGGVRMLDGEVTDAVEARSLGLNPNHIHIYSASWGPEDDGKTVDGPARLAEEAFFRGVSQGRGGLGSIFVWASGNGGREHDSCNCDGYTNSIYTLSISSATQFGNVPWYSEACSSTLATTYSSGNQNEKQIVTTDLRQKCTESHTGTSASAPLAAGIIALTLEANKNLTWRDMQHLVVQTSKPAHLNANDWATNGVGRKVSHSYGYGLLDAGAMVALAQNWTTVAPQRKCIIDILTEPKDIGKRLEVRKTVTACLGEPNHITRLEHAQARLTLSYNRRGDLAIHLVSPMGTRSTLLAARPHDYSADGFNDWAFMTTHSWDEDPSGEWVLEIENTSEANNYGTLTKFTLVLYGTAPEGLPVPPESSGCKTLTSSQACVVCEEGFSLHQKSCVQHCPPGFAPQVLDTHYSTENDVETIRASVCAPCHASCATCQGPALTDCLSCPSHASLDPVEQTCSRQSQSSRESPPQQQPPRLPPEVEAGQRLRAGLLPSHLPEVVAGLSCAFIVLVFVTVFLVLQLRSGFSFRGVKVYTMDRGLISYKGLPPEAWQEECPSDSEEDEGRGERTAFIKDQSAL
# Experimental Details: furin cleavage Z-score vs untreated control; higher = more cleavage, active = 3.5 or more, inactive = 1 or less, 8 variable residues between constant flanks
# Condition Set: 7.5 min
Some of the results follow. The hit rate among all sequences tested is not known here.
Labels: Y (active), N (inactive)

[
  {
    "Polymer Sequence": "CARTGRPVEPAGNASASA [FS-2822]",
    "Class Name": "N"
  },
  {
    "Polymer Sequence": "CARKRRSTNEAGNASASA [FS-2039]",
    "Class Name": "Y"
  },
  {
    "Polymer Sequence": "CARKRRSTDFAGNASASA [FS-2217]",
    "Class Name": "Y"
  },
  {
    "Polymer Sequence": "CARRNRLRKDAGNASASA [FS-87]",
    "Class Name": "Y"
  },
  {
    "Polymer Sequence": "CARKGRNKEIAGNASASA [FS-2687]",
    "Class Name": "N"
  },
  {
    "Polymer Sequence": "CARRKRLRQDAGNASASA [FS-2780]",
    "Class Name": "N"
  },
  {
    "Polymer Sequence": "CALDVVCCSMAGNASASA [HC2105]",
    "Class Name": "N"
  }
]
